Form field: shrunken log2 fold change (one value per entry).
tested on: Escherichia coli TOP10; test: shrunken log2 fold change of peptide-encoding DNA abundance (4.5 h post-induction vs induction); higher = less antimicrobial activity (less host growth inhibition); settings: time post-induction: 4.5 h; library: site-saturation at positions 5, 18, 19, 20
PARAMETER_MEASURED: shrunken log2 fold change

>>> data_value("RRIRMRPPRLPRPRPRPKYMPRP")
0.00659
>>> data_value("RRIRFRPPRLPRPRPRPCIDPRP")
0.255
>>> data_value("RRIRKRPPRLPRPRPRPKQEPRP")
-0.104
>>> data_value("RRIRTRPPRLPRPRPRPFNMPRP")
-0.692
>>> data_value("RRIRWRPPRLPRPRPRPTALPRP")
0.257
>>> data_value("RRIRMRPPRLPRPRPRPTPPPRP")
1.17
>>> data_value("RRIRLRPPRLPRPRPRPFWIPRP")
-0.283
>>> data_value("RRIRFRPPRLPRPRPRPEPTPRP")
0.805
>>> data_value("RRIRKRPPRLPRPRPRPIDTPRP")
-0.0729
>>> data_value("RRIRERPPRLPRPRPRPEHYPRP")
-0.454
>>> data_value("RRIRGRPPRLPRPRPRPMPPPRP")
1.23
>>> data_value("RRIRYRPPRLPRPRPRPHQRPRP")
-0.0288
>>> data_value("RRIRCRPPRLPRPRPRPIVPPRP")
-0.298
>>> data_value("RRIRRRPPRLPRPRPRPEAAPRP")
1.31
>>> data_value("RRIRSRPPRLPRPRPRPCCWPRP")
-0.0914
>>> data_value("RRIRTRPPRLPRPRPRPCCTPRP")
-0.0782
>>> data_value("RRIRYRPPRLPRPRPRPNKTPRP")
-0.258
>>> data_value("RRIRYRPPRLPRPRPRPTWGPRP")
-0.19
>>> data_value("RRIRDRPPRLPRPRPRPLGLPRP")
0.0955
>>> data_value("RRIRFRPPRLPRPRPRPGHWPRP")
0.0649
>>> data_value("RRIRQRPPRLPRPRPRPMVGPRP")
-0.00963
>>> data_value("RRIRTRPPRLPRPRPRPDVLPRP")
-0.208
>>> data_value("RRIRARPPRLPRPRPRPECDPRP")
1.12
>>> data_value("RRIRPRPPRLPRPRPRPPRRPRP")
0.638
>>> data_value("RRIRFRPPRLPRPRPRPHANPRP")
-0.16
>>> data_value("RRIRHRPPRLPRPRPRPIEMPRP")
-0.00281
>>> data_value("RRIRKRPPRLPRPRPRPAAEPRP")
1.12
>>> data_value("RRIRWRPPRLPRPRPRPIHFPRP")
-0.357
>>> data_value("RRIRSRPPRLPRPRPRPRQWPRP")
0.69
>>> data_value("RRIRMRPPRLPRPRPRPRVKPRP")
0.494
>>> data_value("RRIRARPPRLPRPRPRPCAPPRP")
0.384
>>> data_value("RRIRQRPPRLPRPRPRPKCWPRP")
0.621

* * *

system: Escherichia coli TOP10; assay: shrunken log2 fold change of peptide-encoding DNA abundance (4.5 h post-induction vs induction); higher = less antimicrobial activity (less host growth inhibition); conditions: time post-induction: 4.5 h; library: site-saturation at positions 5, 18, 19, 20;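 note: peptides expressed intracellularly from a pBAD plasmid library in pooled LB shake-flask culture, induced with 0.3% L-arabinose, DNA abundance read by NGS, three biological replicates, DESeq2 with apeglm shrinkage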
PARAMETER_MEASURED: shrunken log2 fold change

>>> data_value("RRIRLRPPRLPRPRPRPPSNPRP")
0.00215
>>> data_value("RRIRGRPPRLPRPRPRPWWDPRP")
-0.145
>>> data_value("RRIRARPPRLPRPRPRPQYEPRP")
0.181
>>> data_value("RRIRFRPPRLPRPRPRPTSHPRP")
-0.193
>>> data_value("RRIRERPPRLPRPRPRPDCKPRP")
0.0476
>>> data_value("RRIRNRPPRLPRPRPRPNMLPRP")
-0.772
>>> data_value("RRIRNRPPRLPRPRPRPIFRPRP")
-0.0067
>>> data_value("RRIRTRPPRLPRPRPRPRYWPRP")
-0.156
>>> data_value("RRIRRRPPRLPRPRPRPFTVPRP")
-0.118
>>> data_value("RRIRVRPPRLPRPRPRPNKIPRP")
-0.295
>>> data_value("RRIRHRPPRLPRPRPRPWDWPRP")
-0.00132
>>> data_value("RRIRLRPPRLPRPRPRPNQMPRP")
-0.437
>>> data_value("RRIRWRPPRLPRPRPRPNENPRP")
-0.0342
>>> data_value("RRIRRRPPRLPRPRPRPEIYPRP")
0.0166
>>> data_value("RRIRMRPPRLPRPRPRPSDYPRP")
0.0806
